Origin of values: patent US20180030151A1

Each record here notes measured FXa assay % of FXa alone, 5 nM Ab, 10 nM TFPI.
targetEntity: recombinant human TFPI (tissue factor pathway inhibitor) (human, UniProt P10646 29-304)
experimentSummary: cell-based or functional assay
Kindly answer with a numeric value in %, unit omitted.

[Q] What value of FXa assay % of FXa alone, 5 nM Ab, 10 nM TFPI has been reported for the following binder? clone 1216 (antibody, V domains shown) VH: EVQLVESGGGLVKPGGSLRLSCAASGFTFSHYAMNWVRQAPGKGLEWVSTITTGGSYTYYADSVEGRFTISRDNAKNSLYLQMNSLRAEDTAVYYCARQDGHFLMDYWGQGTLVTVSS VL: DVVMTQTPLSLPVTLGQPASISCKSSQSLLDIDGKTYLNWLQQRPGQSPKRLIYLVSKLDSGVPDRFTGSGSGTDFTLKISRVEAEDVGVYYCWQGTHLPFTFGQGTKVEIKR
[A] 4

[Q] What value of FXa assay % of FXa alone, 5 nM Ab, 10 nM TFPI has been reported for the following binder? clone 1238 (antibody, V domains shown) VH: EVQLVESGGGLVKPGGSLRLSCAASGFTFSSYAMNWVRQAPGKGLEWVSTITTGGSYTYYADSVEGRFTISRDNAKNSLYLQMNSLRAEDTAVYYCARQDGHFLMDYWGQGTLVTVSS VL: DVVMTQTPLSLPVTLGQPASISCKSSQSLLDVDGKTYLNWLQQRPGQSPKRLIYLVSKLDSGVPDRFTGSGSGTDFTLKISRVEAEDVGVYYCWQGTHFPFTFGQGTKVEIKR
[A] 13.2

[Q] What value of FXa assay % of FXa alone, 5 nM Ab, 10 nM TFPI has been reported for the following binder? clone 1023 (antibody, V domains shown, scFv on yeast at selection; human IgG4/kappa IgG as purified) VH: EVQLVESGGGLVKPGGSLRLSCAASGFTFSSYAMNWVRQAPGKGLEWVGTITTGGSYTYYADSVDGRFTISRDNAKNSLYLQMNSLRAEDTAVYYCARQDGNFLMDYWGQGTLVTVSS VL: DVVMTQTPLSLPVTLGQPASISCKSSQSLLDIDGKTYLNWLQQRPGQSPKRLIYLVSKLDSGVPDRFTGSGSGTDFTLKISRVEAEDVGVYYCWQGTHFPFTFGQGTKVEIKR
[A] 8

[Q] What value of FXa assay % of FXa alone, 5 nM Ab, 10 nM TFPI has been reported for the following binder? clone 1214 (antibody, V domains shown) VH: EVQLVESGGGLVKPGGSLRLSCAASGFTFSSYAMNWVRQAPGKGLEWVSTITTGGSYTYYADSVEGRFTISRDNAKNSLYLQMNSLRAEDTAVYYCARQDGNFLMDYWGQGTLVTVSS VL: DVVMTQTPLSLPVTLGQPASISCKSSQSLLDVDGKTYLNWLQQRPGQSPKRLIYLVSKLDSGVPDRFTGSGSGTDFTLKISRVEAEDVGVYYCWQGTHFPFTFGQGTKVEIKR
[A] 23.2
